Assembled from different publications: Ki for UniProt:P00734.
Could you give me the number in nM? Just the number is fine.

smilesInput	targetUnderTest	parameter	readoutNumber
N#Cc1ccc(CS(=O)(=O)N[C@H](CO)C(=O)NCC(=O)NCc2ccc(C(=N)N)cc2)cc1	UniProt:P00734	Ki	8500

// lookup Ki | system=UniProt:P00734 | key= `N=C(N)c1ccc(CNC(=O)CNC(=O)[C@@H](CO)NS(=O)(=O)Cc2cccc(C(=O)O)c2)cc1.O=C(O)C(F)(F)F`
150000

Lab request: please report Ki under test system UniProt:P00734 for `C[C@@H](NC(=O)[C@H](NC(=O)c1cccc(C(=N)N)c1)c1ccccc1)c1cccc2ccccc12`
6920

Please provide the recorded Ki for `CCc1c(N2CCOCC2=O)cccc1S(=O)(=O)N[C@@H](Cc1cc(-c2ccc(Cl)s2)on1)C(=O)N1CCCCCC1` , tested on UniProt:P00734.
0.35

So what Ki did `Cc1c(CNc2ccc(C(=N)N)cc2)cnc(CF)c1OCc1cccc(C(=N)N)c1` get with UniProt:P00734?
17

Request - read-out Ki | tested on UniProt:P00734 | molecule `N=C(N)c1ccc(COc2c(CF)ncc(CNc3ccc(C(=N)N)cc3)c2CF)cc1`
12

Look up Ki with UniProt:P00734 for this molecule: `Cc1ncc(CNc2ccc(-c3ccc(C(=N)N)cc3)cc2)c(C)c1OCc1cccc(C(=N)N)c1`
4600

Notebook: pull reported Ki for UniProt:P00734, entry `CCCCN(CCNC(=O)C(=O)O)C(=O)[C@H](CC(=O)NC[C@@H]1CCCN(C(=N)N)C1)NS(=O)(=O)c1ccc2ccccc2c1`
0.75

Please state recorded Ki (tested on UniProt:P00734) of `N=C(N)c1ccc(/C=C2/CCCCC/C(=C/c3ccc(C(=N)N)cc3)C2=O)cc1`
619

Test system UniProt:P00734; read-out Ki; what value for `Cc1nc(C2CC2)c(CNc2ccc(C(=N)N)cc2)c(CO)c1OCc1cccc(C(=N)N)c1` ?
41
